# solubility annotations
Experiment: Aqueous solubility at 20° C.
Assay type: physicochemical
Settings: water
Write it as a number; the unit µg/mL goes unstated.

Request: Report solubility for OCC(O)COCC(I)=C(I)I (stereo not drawn) [Compound 6] please.
Response: 500

Request: Report solubility for OCC(I)=C(I)I [Compound 3, 2,3,3-Triiodo-2-propene-1-ol] please.
Response: 198

---

Assay: Aqueous solubility at 20° C.
Format: physicochemical
Details: water
MEASUREMENT NAME: solubility (µg/mL)
Write it as a number; the unit µg/mL goes unstated.

- MOLECULE: "OCC(I)=CI"
  solubility / µg/mL: 3910
- MOLECULE: "OCC(I)=C(I)C(I)=C(I)CO"
  solubility / µg/mL: 183
- MOLECULE: "OCC(O)COCC(I)=CI (stereo not drawn)"
  solubility / µg/mL: 18400
- MOLECULE: "OCCOCC(I)=C(I)COCCO"
  solubility / µg/mL: 7200

Please look at the following molecule next.
Request: Report solubility for "OCC(I)=C(I)CO" please.
Response: 534

---

Experiment: Aqueous solubility at 20° C.
Type: physicochemical
Conditions: water, Table 1
# log10 solubility annotations
Plainly stated, the numbers are log10 of solubility given in mg/mL.

- MOLECULE: "OCC(I)=C(I)I [Compound 3, 2,3,3-Triiodo-2-propene-1-ol]"
  READOUT NUMBER: -0.70
- MOLECULE: "OCC(O)COCC(I)=C(I)I (stereo not shown) [Compound 6]"
  READOUT NUMBER: -0.30
- MOLECULE: "OCC(I)=C(I)C(I)=C(I)CO [Compound 16, 2,3,4,5-Tetraiodo-2,4-hexadiene-1,6-diol]"
  READOUT NUMBER: -0.74
- MOLECULE: "OCC(I)=C(I)CO [Compound 12, 2,3-Diiodo-2-butene-1,4-diol]"
  READOUT NUMBER: -0.27
- MOLECULE: "OCCOCC(I)=C(I)COCCO [Compound 9]"
  READOUT NUMBER: 0.86
- MOLECULE: "OCC(I)=CI [Compound 2, 2,3-Diiodo-2-propene-1-ol]"
  READOUT NUMBER: -0.41

Request: Report log10 solubility for OCC(O)COCC(I)=CI (stereo not shown) [Compound 5] please.
Response: 1.26

---

# solubility annotations
Experiment: Aqueous solubility at 20° C.
Type: physicochemical
Settings: water, Table 1

Request: Report solubility for OCC(O)COCC(I)=C(I)COCC(O)CO (stereo not drawn) [Compound 14] please.
Response: > 1200 mg/mL

Request: Report solubility for CC(=O)N(CC(O)CO)c1c(I)c(C(=O)NCC(O)CO)c(I)c(C(=O)NCC(O)CO)c1I (stereo not drawn) [Iohexol, iohexol, reference compound] please.
Response: > 1200 mg/mL

Request: Report solubility for OCC(I)=C(I)COCC(O)CO (stereo not drawn) [Compound 13] please.
Response: > 1200 mg/mL
